Recorded values, source PubChem BioAssay (NCI).

Tested on: SK-MEL-28 melanoma
Assay: NCI-60 one-dose screen, 48 h (100 = growth as untreated, 0 = no growth, -100 = all killed)
Conditions: 10 µM
About 83,000 compounds went through this panel and 20% of them were active in at least one assay; those are over-represented in the sample as a whole.
Reported growth values for a set of molecules
measuredProperty: growth (%)

1. N#Cc1ccc(C(=O)CSc2nccc(Nc3ccc(C(=O)O)cc3)n2)cc1 = 110
2. IC(I)I = 109
3. CC(C)[N+]1(C)C2CC[C@@H]1CC(OC(=O)C(CO)c1ccccc1)C2 (stereo not given in full) = 122
4. Cc1nn(-c2ccc(-c3ccc(OC(F)(F)F)cc3)cc2)c2nc(Cc3ccccc3)nc(N)c12 = 103
5. COc1ccc(-c2cc(-c3cc(OC)ccc3OC)nc(N)c2C#N)cc1 = 88.5
6. O=C(c1ccccc1)N(C(=O)c1ccccc1)N1CCCC1 = 114
7. COc1cc(C2CC(c3ccc4c(c3)OCO4)=NN2c2ccccc2)cc(OC)c1OC (stereo not given) = 99.7
8. C=C(C)[C@@H]1CC[C@]2(COCCC#N)CC[C@]3(C)[C@H](CC[C@@H]4[C@@]5(C)Cc6c([nH]c7ccccc67)C(C)(C)[C@@H]5CC[C@]43C)[C@@H]12 = 100
9. COc1ccc(-c2cc(-c3ccc(Cl)cc3)nc(SCCCC(=O)NO)n2)cc1OC = 20.5
10. O=C(CN(C1CCCCC1)C1CCCCC1)Nc1ccc(S(=O)(=O)c2ccc(NC(=O)CN(C3CCCCC3)C3CCCCC3)cc2)cc1 = 12.2
11. COc1cc2c(cc1NC(=O)C(F)(F)F)-c1ccc(NC(=O)C(F)(F)F)cc1C2 = 103
12. COc1ccc(/C=c2\sc3n(c2=O)C(c2cc(OC)c(OC)c(OC)c2)C=C(c2ccc(OC)c(OC)c2)N=3)cc1OC (stereo not given) = 104
13. CN(C)CCOc1ccc(-c2nc3sccn3c2-c2ccnc(S(C)(=O)=O)n2)cc1 = 110
14. Cc1ccc(NCCNCC(C)(C)O)c2c(=O)c3ccc(Cl)cc3sc12 = -60
15. CCCC1(CN2c3ccccc3Sc3ccc(Cl)cc32)CCN(CC)C1 (stereo not given) = -67.8
16. COc1ccc(C2=Cn3c(CCC(=O)c4nc5ccccc5[nH]4)nnc3SC2)cc1 = 111
17. COc1ccc(C(=O)c2ccccc2CN2C(=O)c3ccccc3C2=O)cc1 = 114
18. CCn1c(SC/C(=N/O)c2ccccc2)nnc1-c1ccccc1 = 106
19. CCNCC(=O)Nc1ccc(C(=O)OCC)cc1 = 103
20. CCc1ccc(-c2ccc(-n3nc(C)c4c(N)nc(Cc5ccccc5)nc43)cc2)cc1 = 92.4
21. CNS(=O)(=O)Oc1ccc(-c2sc3cc(OS(=O)(=O)NC)ccc3c2C(=O)c2ccc(OCCN3CCCCC3)cc2)cc1 = 79.2
22. CCN(CC)CCOC(=O)c1cc(OCc2ccccc2)c(OCc2ccccc2)c(OCc2ccccc2)c1 = 63.2
23. CSc1nc2c(c(=O)n1C)CN(Cc1ccccc1)C(=O)CN2 = 102
24. C=CCn1c(SCC(=O)Nc2ccc(C(=O)/C=C/c3ccc(OC)cc3)cc2)nnc1-c1ccc(OC)c(OC)c1 = 105
25. COc1cc(C(=O)n2nc(-c3cc(OC)c(OC)c(OC)c3)nc2N)cc(OC)c1OC = 97
26. COc1ccc(C(=O)CSc2nc(-c3cc(OC)ccc3OC)cc(-c3ccc(OC)cc3)c2C#N)cc1 = 101
27. CC(C)N(CCOc1ccc(-c2nc3sccn3c2-c2ccnc(S(C)(=O)=O)n2)cc1)C(C)C = 104
28. O=C1c2ccccc2C(=O)c2c1ccc1c(=O)n(-c3ccccc3C(F)(F)F)nnc21 = 63.5
29. COc1cc2cc(Oc3ccc(NC(=O)Nc4ccc(Cl)c(C(F)(F)F)c4)cc3)c(C)nc2cc1OC = -35.9
30. CCN(CC)c1ccc(/C=C2\SC(=O)C(Nc3nnc(-c4cccnc4SCc4ccccc4)o3)C2=O)cc1 (stereo not given) = 50.8
